experimentalSystem: PKN3 (Homo sapiens)
Construct: purchased Reaction Biology Europe GmbH
Sequence (Q6P5Z2 whole entry): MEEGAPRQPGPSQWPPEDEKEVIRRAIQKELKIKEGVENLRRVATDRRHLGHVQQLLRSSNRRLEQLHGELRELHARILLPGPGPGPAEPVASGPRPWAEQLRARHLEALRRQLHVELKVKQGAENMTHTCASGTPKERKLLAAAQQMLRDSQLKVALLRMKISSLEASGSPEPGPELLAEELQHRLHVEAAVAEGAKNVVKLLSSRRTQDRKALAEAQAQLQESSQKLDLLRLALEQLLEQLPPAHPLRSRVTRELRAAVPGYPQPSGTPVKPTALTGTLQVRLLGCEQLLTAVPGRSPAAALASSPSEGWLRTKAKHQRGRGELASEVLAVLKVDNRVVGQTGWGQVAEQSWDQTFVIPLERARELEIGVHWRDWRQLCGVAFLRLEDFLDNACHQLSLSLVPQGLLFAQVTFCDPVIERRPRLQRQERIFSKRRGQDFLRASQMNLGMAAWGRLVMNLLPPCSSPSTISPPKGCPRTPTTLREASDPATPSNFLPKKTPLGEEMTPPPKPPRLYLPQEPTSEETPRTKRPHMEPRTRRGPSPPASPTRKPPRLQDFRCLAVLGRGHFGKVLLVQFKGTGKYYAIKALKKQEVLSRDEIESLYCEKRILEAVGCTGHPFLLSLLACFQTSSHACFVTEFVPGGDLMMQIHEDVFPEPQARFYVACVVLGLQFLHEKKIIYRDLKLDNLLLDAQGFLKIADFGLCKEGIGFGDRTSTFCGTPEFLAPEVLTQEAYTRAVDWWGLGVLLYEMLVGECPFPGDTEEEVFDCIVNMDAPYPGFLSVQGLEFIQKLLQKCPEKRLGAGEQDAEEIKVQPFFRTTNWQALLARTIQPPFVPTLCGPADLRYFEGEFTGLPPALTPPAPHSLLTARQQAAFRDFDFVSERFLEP
experimentSummary: PanQinase kinase panel: PKN3
Type: biochemical
measurementConditions: read-out: INHIBITORY EFFECT @ 1 uM: PKN3
Description: Screening procedures were performed in accordance with the company's on-line protocol [accessed on-line Mar. For each kinase, the median value of the cpm of three wells was defined as “low control” (n=3). This value reflects unspecific binding of radioactivity to the plate in the absence of a protein kinase but in the presence of the substrate. […]
endpointLabel: inhibition at 1 µM

Query: Identify the measured inhibition at 1 µM of COc1ccc(F)cc1C(=O)NCc1ccc(-c2nn([C@@H](C)C(F)(F)F)c(N)c2C(N)=O)cc1 for PKN3 (Homo sapiens).
Result: < 50%

Query: Identify the measured inhibition at 1 µM of C=CC(=O)N1CCC([C@@H]2CCNc3c(C(N)=O)c(-c4ccc(Oc5ccccc5)cc4)nn32)CC1 for PKN3 (Homo sapiens).
Result: < 50%

Query: Identify the measured inhibition at 1 µM of O=C(c1ccc(Oc2ccccc2)cc1Cl)c1c[nH]c2ncnc(N[C@@H]3CC[C@@H](CO)OC3)c12 for PKN3 (Homo sapiens).
Result: 50 to 69%

Query: Identify the measured inhibition at 1 µM of Cc1cccnc1[C@H]1CCC[C@@H](c2ncccc2C)N1CCN1CCN(C(=O)c2ccc(-c3cc4c(-c5cccc(NC(=O)c6ccccc6)c5C)ncnc4[nH]3)cc2)CC1 for PKN3 (Homo sapiens).
Result: 50 to 69%

---

For each of the compounds below, state its inhibition at 1 µM.
experimentalSystem: FGFR1 (Homo sapiens, UniProt P11362)
Construct: purchased Reaction Biology Europe GmbH
Sequence (P11362 22-822): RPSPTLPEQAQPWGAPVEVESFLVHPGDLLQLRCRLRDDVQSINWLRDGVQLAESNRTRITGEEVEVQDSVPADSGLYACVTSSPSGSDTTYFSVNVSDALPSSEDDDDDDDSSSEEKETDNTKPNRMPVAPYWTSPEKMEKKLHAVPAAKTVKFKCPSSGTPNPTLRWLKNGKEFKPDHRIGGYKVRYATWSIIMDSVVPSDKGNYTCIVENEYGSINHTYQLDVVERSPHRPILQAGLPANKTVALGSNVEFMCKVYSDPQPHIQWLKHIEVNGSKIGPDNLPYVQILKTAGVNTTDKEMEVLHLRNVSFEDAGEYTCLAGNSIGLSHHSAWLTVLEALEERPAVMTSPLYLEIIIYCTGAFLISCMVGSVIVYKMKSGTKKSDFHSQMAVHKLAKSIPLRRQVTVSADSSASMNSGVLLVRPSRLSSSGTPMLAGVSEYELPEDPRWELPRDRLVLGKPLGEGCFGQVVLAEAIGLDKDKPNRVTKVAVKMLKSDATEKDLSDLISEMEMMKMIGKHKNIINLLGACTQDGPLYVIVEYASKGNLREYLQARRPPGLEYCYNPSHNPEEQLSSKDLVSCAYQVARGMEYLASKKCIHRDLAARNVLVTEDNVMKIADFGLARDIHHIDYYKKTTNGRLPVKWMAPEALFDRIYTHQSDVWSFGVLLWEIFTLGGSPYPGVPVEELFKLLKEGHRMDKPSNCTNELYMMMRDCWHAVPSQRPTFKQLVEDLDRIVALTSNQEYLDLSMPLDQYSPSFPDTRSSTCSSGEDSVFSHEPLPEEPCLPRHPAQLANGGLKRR
experimentSummary: PanQinase kinase panel: FGFR1
Format: biochemical
measurementConditions: read-out: INHIBITORY EFFECT @ 1 uM: FGFR1

Query: Identify the measured inhibition at 1 µM of Cc1cccnc1[C@H]1CCC[C@@H](c2ncccc2C)N1CCN1CCN(C(=O)c2ccc(-c3cc4c(-c5cccc(NC(=O)c6ccccc6)c5C)ncnc4[nH]3)cc2)CC1 for FGFR1 (Homo sapiens, UniProt P11362).
Result: < 50%

Query: Identify the measured inhibition at 1 µM of COc1ccc(F)cc1C(=O)NCc1ccc(-c2nn([C@@H](C)C(F)(F)F)c(N)c2C(N)=O)cc1 for FGFR1 (Homo sapiens, UniProt P11362).
Result: < 50%

Query: Identify the measured inhibition at 1 µM of O=C(c1ccc(Oc2ccccc2)cc1Cl)c1c[nH]c2ncnc(N[C@@H]3CC[C@@H](CO)OC3)c12 for FGFR1 (Homo sapiens, UniProt P11362).
Result: 50 to 69%

Query: Identify the measured inhibition at 1 µM of C=CC(=O)N1CCC([C@@H]2CCNc3c(C(N)=O)c(-c4ccc(Oc5ccccc5)cc4)nn32)CC1 for FGFR1 (Homo sapiens, UniProt P11362).
Result: < 50%

---

For each of the molecules below, state its inhibition at 1 µM.
experimentalSystem: MKK6 SDTD (Homo sapiens, UniProt P52564, S207D/T211D)
Construct: purchased Reaction Biology Europe GmbH
Sequence (P52564 whole entry S207D/T211D): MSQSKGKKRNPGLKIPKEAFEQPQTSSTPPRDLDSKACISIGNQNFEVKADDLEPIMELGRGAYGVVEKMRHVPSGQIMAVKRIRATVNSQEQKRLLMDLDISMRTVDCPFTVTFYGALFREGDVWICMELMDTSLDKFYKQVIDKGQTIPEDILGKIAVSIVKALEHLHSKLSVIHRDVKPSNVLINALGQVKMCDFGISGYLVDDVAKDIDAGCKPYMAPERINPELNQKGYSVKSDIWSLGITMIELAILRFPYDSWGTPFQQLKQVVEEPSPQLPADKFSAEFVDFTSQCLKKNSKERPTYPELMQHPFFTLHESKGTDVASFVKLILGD
experimentSummary: PanQinase kinase panel: MKK6 SDTD
Assay type: biochemical
measurementConditions: read-out: INHIBITORY EFFECT @ 1 uM: MKK6 SDTD

Query: For the molecule shown here, C=CC(=O)N1CCC([C@@H]2CCNc3c(C(N)=O)c(-c4ccc(Oc5ccccc5)cc4)nn32)CC1 [Zanubrutinib] , give the reported inhibition at 1 µM.
Result: < 50%

Query: For the molecule shown here, Cc1cccnc1[C@H]1CCC[C@@H](c2ncccc2C)N1CCN1CCN(C(=O)c2ccc(-c3cc4c(-c5cccc(NC(=O)c6ccccc6)c5C)ncnc4[nH]3)cc2)CC1 [Compound I-10] , give the reported inhibition at 1 µM.
Result: < 50%

Query: For the molecule shown here, COc1ccc(F)cc1C(=O)NCc1ccc(-c2nn([C@@H](C)C(F)(F)F)c(N)c2C(N)=O)cc1 [LOXO-305, pirtobrutinib] , give the reported inhibition at 1 µM.
Result: < 50%

Query: For the molecule shown here, O=C(c1ccc(Oc2ccccc2)cc1Cl)c1c[nH]c2ncnc(N[C@@H]3CC[C@@H](CO)OC3)c12 [ARQ-531] , give the reported inhibition at 1 µM.
Result: 90 to 100%

---

experimentalSystem: TIE2 (Homo sapiens)
Construct: purchased Reaction Biology Europe GmbH
Sequence (Q02763 23-1124): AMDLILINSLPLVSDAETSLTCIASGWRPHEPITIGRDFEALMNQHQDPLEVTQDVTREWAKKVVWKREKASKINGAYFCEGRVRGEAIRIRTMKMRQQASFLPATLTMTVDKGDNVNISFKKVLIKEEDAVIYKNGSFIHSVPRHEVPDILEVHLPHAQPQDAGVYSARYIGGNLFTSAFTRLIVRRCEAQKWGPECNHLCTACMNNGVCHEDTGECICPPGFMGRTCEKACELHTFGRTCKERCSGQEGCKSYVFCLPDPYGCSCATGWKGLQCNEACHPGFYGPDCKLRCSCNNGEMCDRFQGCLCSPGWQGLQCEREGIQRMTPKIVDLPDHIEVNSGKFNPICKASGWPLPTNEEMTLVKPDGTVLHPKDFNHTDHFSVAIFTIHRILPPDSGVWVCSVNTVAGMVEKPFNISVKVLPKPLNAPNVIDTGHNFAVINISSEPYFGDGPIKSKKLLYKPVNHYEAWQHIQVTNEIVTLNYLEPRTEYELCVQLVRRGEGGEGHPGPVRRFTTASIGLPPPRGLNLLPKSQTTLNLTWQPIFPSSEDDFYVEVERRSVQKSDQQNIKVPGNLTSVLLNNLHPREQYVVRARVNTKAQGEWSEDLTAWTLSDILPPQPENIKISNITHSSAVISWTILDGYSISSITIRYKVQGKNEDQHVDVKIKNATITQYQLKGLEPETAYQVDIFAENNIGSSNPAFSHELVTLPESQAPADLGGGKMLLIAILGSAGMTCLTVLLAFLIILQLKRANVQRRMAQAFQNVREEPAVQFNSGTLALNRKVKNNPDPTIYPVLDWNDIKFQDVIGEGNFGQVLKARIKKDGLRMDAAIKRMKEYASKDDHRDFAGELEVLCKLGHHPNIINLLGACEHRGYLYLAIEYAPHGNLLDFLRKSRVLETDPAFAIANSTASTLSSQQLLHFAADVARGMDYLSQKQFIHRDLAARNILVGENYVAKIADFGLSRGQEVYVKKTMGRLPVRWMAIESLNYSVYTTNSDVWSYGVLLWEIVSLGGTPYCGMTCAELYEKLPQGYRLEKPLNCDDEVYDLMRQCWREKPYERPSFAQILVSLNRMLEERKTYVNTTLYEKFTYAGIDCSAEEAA
experimentSummary: PanQinase kinase panel: TIE2
Format: biochemical
measurementConditions: read-out: INHIBITORY EFFECT @ 1 uM: TIE2
endpointLabel: inhibition at 1 µM

Query: For the compound shown here, O=C(c1ccc(Oc2ccccc2)cc1Cl)c1c[nH]c2ncnc(N[C@@H]3CC[C@@H](CO)OC3)c12 , give the reported inhibition at 1 µM.
Result: < 50%

Query: For the compound shown here, COc1ccc(F)cc1C(=O)NCc1ccc(-c2nn([C@@H](C)C(F)(F)F)c(N)c2C(N)=O)cc1 , give the reported inhibition at 1 µM.
Result: < 50%

Query: For the compound shown here, Cc1cccnc1[C@H]1CCC[C@@H](c2ncccc2C)N1CCN1CCN(C(=O)c2ccc(-c3cc4c(-c5cccc(NC(=O)c6ccccc6)c5C)ncnc4[nH]3)cc2)CC1 , give the reported inhibition at 1 µM.
Result: < 50%

Query: For the compound shown here, C=CC(=O)N1CCC([C@@H]2CCNc3c(C(N)=O)c(-c4ccc(Oc5ccccc5)cc4)nn32)CC1 , give the reported inhibition at 1 µM.
Result: < 50%

---

For each of the compounds below, state its inhibition at 1 µM.
experimentalSystem: ITK (Homo sapiens)
Construct: purchased Reaction Biology Europe GmbH
Sequence (Q08881 1-620): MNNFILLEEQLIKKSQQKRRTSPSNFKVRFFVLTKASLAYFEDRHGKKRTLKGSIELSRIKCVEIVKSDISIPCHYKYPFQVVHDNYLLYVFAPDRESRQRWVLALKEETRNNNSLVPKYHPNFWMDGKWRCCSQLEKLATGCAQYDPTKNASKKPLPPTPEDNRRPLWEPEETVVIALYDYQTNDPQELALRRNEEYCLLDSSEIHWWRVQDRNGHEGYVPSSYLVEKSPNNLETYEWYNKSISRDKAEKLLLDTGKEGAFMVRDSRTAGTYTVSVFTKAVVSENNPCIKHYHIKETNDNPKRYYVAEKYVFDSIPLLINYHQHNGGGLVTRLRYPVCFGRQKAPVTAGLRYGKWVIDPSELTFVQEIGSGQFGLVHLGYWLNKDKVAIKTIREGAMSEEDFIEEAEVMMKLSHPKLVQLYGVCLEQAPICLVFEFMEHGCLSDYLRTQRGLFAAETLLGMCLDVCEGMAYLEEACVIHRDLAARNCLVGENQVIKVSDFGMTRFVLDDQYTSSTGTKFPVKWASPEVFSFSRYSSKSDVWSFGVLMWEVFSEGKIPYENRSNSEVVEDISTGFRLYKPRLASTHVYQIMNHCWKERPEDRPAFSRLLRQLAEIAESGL
experimentSummary: PanQinase kinase panel: ITK
Assay type: biochemical
measurementConditions: read-out: INHIBITORY EFFECT @ 1 uM: ITK

Query: For the compound shown here, COc1ccc(F)cc1C(=O)NCc1ccc(-c2nn([C@@H](C)C(F)(F)F)c(N)c2C(N)=O)cc1 [LOXO-305, pirtobrutinib] , give the reported inhibition at 1 µM.
Result: < 50%

Query: For the compound shown here, Cc1cccnc1[C@H]1CCC[C@@H](c2ncccc2C)N1CCN1CCN(C(=O)c2ccc(-c3cc4c(-c5cccc(NC(=O)c6ccccc6)c5C)ncnc4[nH]3)cc2)CC1 [Compound I-10] , give the reported inhibition at 1 µM.
Result: < 50%

Query: For the compound shown here, C=CC(=O)N1CCC([C@@H]2CCNc3c(C(N)=O)c(-c4ccc(Oc5ccccc5)cc4)nn32)CC1 [Zanubrutinib] , give the reported inhibition at 1 µM.
Result: < 50%

Query: For the compound shown here, O=C(c1ccc(Oc2ccccc2)cc1Cl)c1c[nH]c2ncnc(N[C@@H]3CC[C@@H](CO)OC3)c12 [ARQ-531] , give the reported inhibition at 1 µM.
Result: 50 to 69%

---

experimentalSystem: RAF1 YDYD (Homo sapiens, UniProt P04049, Y340D/Y341D)
Construct: purchased Reaction Biology Europe GmbH
Sequence (P04049 307-648 Y340D/Y341D limits assumed): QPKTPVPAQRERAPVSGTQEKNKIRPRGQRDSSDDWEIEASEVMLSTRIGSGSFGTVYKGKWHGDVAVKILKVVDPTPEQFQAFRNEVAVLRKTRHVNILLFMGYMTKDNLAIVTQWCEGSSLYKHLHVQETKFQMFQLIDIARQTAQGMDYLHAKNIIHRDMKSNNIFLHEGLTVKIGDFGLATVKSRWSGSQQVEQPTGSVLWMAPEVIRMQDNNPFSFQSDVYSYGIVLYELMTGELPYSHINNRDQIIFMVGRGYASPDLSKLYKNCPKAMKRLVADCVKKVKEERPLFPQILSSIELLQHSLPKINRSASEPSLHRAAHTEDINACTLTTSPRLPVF
experimentSummary: PanQinase kinase panel: RAF1 YDYD
Format: biochemical
measurementConditions: read-out: INHIBITORY EFFECT @ 1 uM: RAF1 YDYD
For each of the molecules below, state its inhibition at 1 µM.

Query: Identify the measured inhibition at 1 µM of O=C(c1ccc(Oc2ccccc2)cc1Cl)c1c[nH]c2ncnc(N[C@@H]3CC[C@@H](CO)OC3)c12 for RAF1 YDYD (Homo sapiens, UniProt P04049, Y340D/Y341D).
Result: 70 to 89%

Query: Identify the measured inhibition at 1 µM of C=CC(=O)N1CCC([C@@H]2CCNc3c(C(N)=O)c(-c4ccc(Oc5ccccc5)cc4)nn32)CC1 for RAF1 YDYD (Homo sapiens, UniProt P04049, Y340D/Y341D).
Result: < 50%

Query: Identify the measured inhibition at 1 µM of COc1ccc(F)cc1C(=O)NCc1ccc(-c2nn([C@@H](C)C(F)(F)F)c(N)c2C(N)=O)cc1 for RAF1 YDYD (Homo sapiens, UniProt P04049, Y340D/Y341D).
Result: < 50%

Query: Identify the measured inhibition at 1 µM of Cc1cccnc1[C@H]1CCC[C@@H](c2ncccc2C)N1CCN1CCN(C(=O)c2ccc(-c3cc4c(-c5cccc(NC(=O)c6ccccc6)c5C)ncnc4[nH]3)cc2)CC1 for RAF1 YDYD (Homo sapiens, UniProt P04049, Y340D/Y341D).
Result: < 50%
